System: LC-2-ad
Assay: relative viability (nuclei count vs DMSO), 5 days (fraction); higher = more cells survive
Settings: first compound 0.02 µM
Reported relative viability by item:
API doc: respond with a numeric literal and nothing else, no unit.

// known answers, use as guide
molecule	relative viability
CN1CCN(CCOc2cc(OC3CCOCC3)c3c(Nc4c(Cl)ccc5c4OCO5)ncnc3c2)CC1 [Saracatinib] + CC(=O)Nc1cccc(-n2c(=O)n(C3CC3)c(=O)c3c(Nc4ccc(I)cc4F)n(C)c(=O)c(C)c32)c1 [Trametinib] (partner 0.02 µM)	0.9
CCNC(=O)c1noc(-c2cc(C(C)C)c(O)cc2O)c1-c1ccc(CN2CCOCC2)cc1 [Luminespib] + N=C(N)NC(=N)NCCc1ccccc1 [Phenformin] (partner 250 µM)	0.551
CCNC(=O)c1noc(-c2cc(C(C)C)c(O)cc2O)c1-c1ccc(CN2CCOCC2)cc1 [Luminespib] + NC(=O)Nc1cc(-c2cccc(F)c2)sc1C(=O)N[C@H]1CCCNC1 [AZD7762] (partner 0.2 µM)	0.833
CN1CCN(CCOc2cc(OC3CCOCC3)c3c(Nc4c(Cl)ccc5c4OCO5)ncnc3c2)CC1 [Saracatinib] + CC1(C)CCC(c2ccc(Cl)cc2)=C(CN2CCN(c3ccc(C(=O)NS(=O)(=O)c4ccc(N[C@H](CCN5CCOCC5)CSc5ccccc5)c(S(=O)(=O)C(F)(F)F)c4)cc3)CC2)C1 [Navitoclax] (partner 0.5 µM)	0.453
CN1CCN(CCOc2cc(OC3CCOCC3)c3c(Nc4c(Cl)ccc5c4OCO5)ncnc3c2)CC1 [Saracatinib] + Nc1nc2[nH]cc(CCc3ccc(C(=O)N[C@@H](CCC(=O)O)C(=O)O)cc3)c2c(=O)[nH]1 [Pemetrexed] (partner 0.2 µM)	0.286

Please look at the following molecule next.
query: Item CN1CCN(CCOc2cc(OC3CCOCC3)c3c(Nc4c(Cl)ccc5c4OCO5)ncnc3c2)CC1 [Saracatinib] + NC(=O)Nc1cc(-c2cccc(F)c2)sc1C(=O)N[C@H]1CCCNC1 [AZD7762] (partner 0.2 µM) with LC-2-ad - relative viability?
result: 0.841
